- System name: Cannabinoid receptor 2 (Homo sapiens, UniProt P34972)
- Sequence (P34972 whole entry): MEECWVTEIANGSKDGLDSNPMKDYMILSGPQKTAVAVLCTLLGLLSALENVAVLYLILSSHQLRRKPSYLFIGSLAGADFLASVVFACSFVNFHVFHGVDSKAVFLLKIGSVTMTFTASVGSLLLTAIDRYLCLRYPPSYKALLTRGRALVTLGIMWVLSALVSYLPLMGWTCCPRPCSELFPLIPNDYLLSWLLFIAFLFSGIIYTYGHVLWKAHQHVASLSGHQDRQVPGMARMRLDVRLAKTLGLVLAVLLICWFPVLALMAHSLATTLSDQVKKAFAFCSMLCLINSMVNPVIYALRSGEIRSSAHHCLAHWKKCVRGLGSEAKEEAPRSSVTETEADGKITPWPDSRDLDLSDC
- Experiment: Inverse agonist activity at human cannabinoid receptor 2 expressed in HEK293 cells assessed as increase in forskolin-induced cAMP production preincubated with cells followed by forskolin stimulation measured after 30 mins in presence of D2-labeled cAMP and Eu3+-TBP-NHS cryptate by HTRF assay
pEC50: −log10 of the molar value.
Exercise: state measured pEC50 for each of the molecules provided.

`C[C@@H](NC(=O)c1nn(-c2ccc(Cl)c(Cl)c2)c2c1CCCC/C2=C\c1ccc(Cl)cc1)c1ccccn1` has a reported pEC50 of < 5.00

The recorded pEC50 for entry `C[C@@H](NC(=O)c1nn(-c2ccc(Cl)cc2Cl)c2c1CCCC/C2=C\c1ccc(F)cc1)c1ccccc1` equals 5.25

// pEC50 value for `O=C(NC1(c2ccccn2)CC1)c1nn(-c2ccc(C(F)(F)F)cc2Cl)c2c1CCCC/C2=C\c1ccc(Cl)s1` : < 5.00

Looking up `C[C@@H](NC(=O)c1nn(-c2ccc(Cl)c(Cl)c2)c2c1CCCC/C2=C\c1ccc(C(F)(F)F)cc1)c1ccccn1` , I see its pEC50 listed as < 5.00

Recorded result, `O=C(NC1CCN(c2ccccn2)CC1)c1nn(-c2ccc(Cl)cc2Cl)c2c1CCCC/C2=C\c1ccc(F)cc1` , pEC50: < 5.00

molecule `C[C@@H](NC(=O)c1nn(-c2ccc(C(F)(F)F)cc2Cl)c2c1CCC/C2=C\c1ccc(Cl)s1)c1ccccn1` , pEC50 observed: < 5.00

// recorded pEC50 for `C[C@@H](NC(=O)c1nn(-c2ccc(Cl)cc2Cl)c2c1CCC/C2=C\c1ccc(F)cc1)c1ccccn1` : < 5.00

Quick note, pEC50 for `O=C(NC1(c2ccccn2)CC1)c1nn(-c2ccc(Cl)cc2)c2c1CCC/C2=C\c1ccc(Cl)cc1` landed at 5.79

Each recorded value in this set is attributed to ChEMBL document CHEMBL3862000.
